src = PubChem BioAssay AID687036

# system: Protein arginine N-methyltransferase 1 (Homo sapiens) (UniProt Q99873)
# Sequence (Q99873 whole entry, looked up): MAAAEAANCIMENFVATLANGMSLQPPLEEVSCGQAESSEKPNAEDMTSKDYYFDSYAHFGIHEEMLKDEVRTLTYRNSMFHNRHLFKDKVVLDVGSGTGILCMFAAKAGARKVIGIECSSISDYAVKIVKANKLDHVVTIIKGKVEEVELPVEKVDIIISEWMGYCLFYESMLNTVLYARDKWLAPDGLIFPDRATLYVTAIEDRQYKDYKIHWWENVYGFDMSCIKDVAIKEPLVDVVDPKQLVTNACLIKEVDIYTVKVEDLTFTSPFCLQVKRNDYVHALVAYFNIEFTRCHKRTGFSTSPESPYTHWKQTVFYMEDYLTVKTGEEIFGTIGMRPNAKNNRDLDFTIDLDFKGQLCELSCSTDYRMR
# testName: PRMT1 methyltransferase inhibitors, confirmation, biochemical, fluorescence polarization, triplicate (AID 687036)
# runConditions: recombinant His-PRMT1, activity-based probe fluorescence polarization; at 2.79 µM
About 1,400 (42%) of roughly 3,300 compounds were called active.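 How the source made its calls: active means mean inhibition across replicates above the hit cutoff derived for the earlier primary screen (cut at about 22% in these data); inactive means the rest.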 So high a share suggests a set chosen from earlier hits. A selection follows.
Possible outcomes: T = active, F = inactive

{"columns": ["compound", "system", "classAssignment"],
 "data": [
  ["O=C(Nc1nc(-c2ccco2)c(-c2ccco2)s1)c1ccco1", "Protein arginine N-methyltransferase 1 (Homo sapiens) (UniProt Q99873)", "T"],
  ["Cc1ccc(SC(CC(=O)c2ccc(C(C)(C)C)cc2)C(=O)O)cc1 (centres undefined)", "Protein arginine N-methyltransferase 1 (Homo sapiens) (UniProt Q99873)", "T"],
  ["O=C(Nc1ccccc1)c1nnsc1S(=O)(=O)c1ccc(Cl)cc1", "Protein arginine N-methyltransferase 1 (Homo sapiens) (UniProt Q99873)", "T"],
  ["CC(C(=O)Nc1ccc(O)c(C(=O)O)c1)N1C(=O)/C(=C/c2cccs2)SC1=S (centres undefined)", "Protein arginine N-methyltransferase 1 (Homo sapiens) (UniProt Q99873)", "F"],
  ["O=C(Oc1ccccc1C(=S)N1CCCCC1)c1cc([N+](=O)[O-])cc([N+](=O)[O-])c1", "Protein arginine N-methyltransferase 1 (Homo sapiens) (UniProt Q99873)", "T"],
  ["COc1ccccc1-n1c(SCC(=O)Nc2ccc(Cl)cc2)nc(O)c(Cc2ccccc2)c1=O", "Protein arginine N-methyltransferase 1 (Homo sapiens) (UniProt Q99873)", "F"],
  ["CCC(c1nnnn1Cc1ccco1)N(Cc1cc2cc(OC)ccc2[nH]c1=O)C1CCCCC1 (centres undefined)", "Protein arginine N-methyltransferase 1 (Homo sapiens) (UniProt Q99873)", "F"],
  ["Cc1ccccc1-n1c(SCC(=O)Nc2cccc3ccccc23)nc(O)cc1=O", "Protein arginine N-methyltransferase 1 (Homo sapiens) (UniProt Q99873)", "F"],
  ["Cc1cc2nc(-c3ccco3)c(Cc3cccc(F)c3)n2c(C)c1Br", "Protein arginine N-methyltransferase 1 (Homo sapiens) (UniProt Q99873)", "F"],
  ["Cc1ccc(OS(=O)(=O)c2ccc(-c3csc(C)n3)s2)c(C)c1", "Protein arginine N-methyltransferase 1 (Homo sapiens) (UniProt Q99873)", "F"],
  ["FC(F)(F)c1nc2ccccc2nc1N/N=C/c1ccc(Cl)cc1", "Protein arginine N-methyltransferase 1 (Homo sapiens) (UniProt Q99873)", "F"],
  ["Cc1cccc(N2CCN(C(=O)/C=C/c3ccco3)CC2)c1C", "Protein arginine N-methyltransferase 1 (Homo sapiens) (UniProt Q99873)", "F"],
  ["CC(=O)N1CC(C)c2scc(C)[n+]2-c2ccccc21 (centres undefined)", "Protein arginine N-methyltransferase 1 (Homo sapiens) (UniProt Q99873)", "T"],
  ["Cc1nnc(SCC2=C(C(=O)O)N3C(=O)C(NC(=O)Cn4nc(C)c(Cl)c4C)C3SC2)s1 (centres undefined)", "Protein arginine N-methyltransferase 1 (Homo sapiens) (UniProt Q99873)", "F"],
  ["NS(=O)(=O)c1ccc(NC(=O)COC(=O)c2c3c(nc4ccccc24)/C(=C\\c2ccc4c(c2)OCO4)CCC3)cc1", "Protein arginine N-methyltransferase 1 (Homo sapiens) (UniProt Q99873)", "F"],
  ["OCCn1c(-c2ccccc2)csc1=Nc1ccccc1", "Protein arginine N-methyltransferase 1 (Homo sapiens) (UniProt Q99873)", "F"],
  ["Cn1sc(=O)c2cc(S(=O)(=O)NC3CC3)ccc21", "Protein arginine N-methyltransferase 1 (Homo sapiens) (UniProt Q99873)", "T"],
  ["N#CC1=C(N)Oc2[nH]c(=S)[nH]c(=O)c2C12C(=O)Nc1ccccc12 (centres undefined)", "Protein arginine N-methyltransferase 1 (Homo sapiens) (UniProt Q99873)", "T"],
  ["Brc1ccccc1C1Nc2cccc3cccc(c23)N1", "Protein arginine N-methyltransferase 1 (Homo sapiens) (UniProt Q99873)", "T"],
  ["O=S(=O)(O)c1cc2onnc2c2ccccc12", "Protein arginine N-methyltransferase 1 (Homo sapiens) (UniProt Q99873)", "T"],
  ["O=C(O)/C=C/C(=O)NNc1ccc([N+](=O)[O-])cc1", "Protein arginine N-methyltransferase 1 (Homo sapiens) (UniProt Q99873)", "F"],
  ["COc1ccc(C(=O)COC(=O)COc2ccc(C)c(C)c2)cc1", "Protein arginine N-methyltransferase 1 (Homo sapiens) (UniProt Q99873)", "F"],
  ["O=c1ccc2c(-c3ccccc3S(=O)(=O)O)c3ccc(O)c(O)c3oc-2c1O", "Protein arginine N-methyltransferase 1 (Homo sapiens) (UniProt Q99873)", "T"],
  ["O=C(O)c1ccc(/C=C2\\SC(=S)N(NC(=O)c3ccc(Br)cc3)C2=O)cc1", "Protein arginine N-methyltransferase 1 (Homo sapiens) (UniProt Q99873)", "F"],
  ["O=C(CN1CCN(c2ccc(O)cc2)CC1)NC1CCCc2ccccc21 (centres undefined)", "Protein arginine N-methyltransferase 1 (Homo sapiens) (UniProt Q99873)", "F"],
  ["C=CS(=O)c1sc(Cl)c(N2CCOCC2)c1[N+](=O)[O-] (centres undefined)", "Protein arginine N-methyltransferase 1 (Homo sapiens) (UniProt Q99873)", "T"],
  ["Cc1ccnc(-n2sc3ccccc3c2=O)n1", "Protein arginine N-methyltransferase 1 (Homo sapiens) (UniProt Q99873)", "T"],
  ["COc1ccc(NC(=O)CSc2nc(SC)ns2)c(OC)c1", "Protein arginine N-methyltransferase 1 (Homo sapiens) (UniProt Q99873)", "T"],
  ["Cc1cc(NC(=O)C(C)SCC(=O)Nc2cccc(S(=O)(=O)N3CCCCCC3)c2)no1 (centres undefined)", "Protein arginine N-methyltransferase 1 (Homo sapiens) (UniProt Q99873)", "F"],
  ["O=C(Nc1cccc(F)c1)c1cc(-c2ccco2)nc2ccccc12", "Protein arginine N-methyltransferase 1 (Homo sapiens) (UniProt Q99873)", "F"],
  ["CN(CCOc1ccccc1)C(=O)c1cc(-c2ccco2)nc2ccccc12", "Protein arginine N-methyltransferase 1 (Homo sapiens) (UniProt Q99873)", "F"],
  ["O=S(=O)(c1ccc(Sc2nnc3ccccn23)nc1)N1CCOCC1", "Protein arginine N-methyltransferase 1 (Homo sapiens) (UniProt Q99873)", "F"],
  ["O=C(NC(Cc1c[nH]c2ccccc12)C(=O)O)/C(=C/c1ccco1)NC(=O)c1ccccc1 (centres undefined)", "Protein arginine N-methyltransferase 1 (Homo sapiens) (UniProt Q99873)", "F"],
  ["Cc1cc2c(c(=O)n1Cc1ccco1)C(c1ccccc1)C(C#N)=C(N)O2 (centres undefined)", "Protein arginine N-methyltransferase 1 (Homo sapiens) (UniProt Q99873)", "F"],
  ["CCOC(=O)N1CCN(C(c2cccnc2)c2ccc3cccnc3c2O)CC1 (centres undefined)", "Protein arginine N-methyltransferase 1 (Homo sapiens) (UniProt Q99873)", "T"],
  ["O=C(COC(=O)Cn1cnc2ccccc21)Nc1cccc2c1C(=O)c1ccccc1C2=O", "Protein arginine N-methyltransferase 1 (Homo sapiens) (UniProt Q99873)", "F"],
  ["Cc1nc2sc(C(c3ccco3)N3CCOCC3)c(O)n2n1 (centres undefined)", "Protein arginine N-methyltransferase 1 (Homo sapiens) (UniProt Q99873)", "F"],
  ["Cc1ccc(-c2ccc(/C=C(\\C#N)C(N)=S)o2)c([N+](=O)[O-])c1", "Protein arginine N-methyltransferase 1 (Homo sapiens) (UniProt Q99873)", "F"],
  ["CN(C)C(=O)N=NC(=O)N(C)C", "Protein arginine N-methyltransferase 1 (Homo sapiens) (UniProt Q99873)", "F"],
  ["COc1ccc(N2C(=O)CC(N3CCC(C(N)=O)CC3)C2=O)cc1 (centres undefined)", "Protein arginine N-methyltransferase 1 (Homo sapiens) (UniProt Q99873)", "F"],
  ["CCN(CC)CCCC(C)n1c2nc(=O)[nH]c(=O)c-2nc2cc(Cl)ccc21 (centres undefined)", "Protein arginine N-methyltransferase 1 (Homo sapiens) (UniProt Q99873)", "T"],
  ["O=C(O)CCn1c(O)c(C=C2N=c3ccccc3=N2)sc1=S", "Protein arginine N-methyltransferase 1 (Homo sapiens) (UniProt Q99873)", "F"],
  ["COC(=O)/C=C\\C(=O)Nc1cccc([N+](=O)[O-])c1", "Protein arginine N-methyltransferase 1 (Homo sapiens) (UniProt Q99873)", "T"],
  ["COc1ccccc1-n1c(-c2cc(-c3ccco3)[nH]n2)n[nH]c1=S", "Protein arginine N-methyltransferase 1 (Homo sapiens) (UniProt Q99873)", "F"]
]}
